# system-name: human dopamine transporter (Homo sapiens (Human), UniProt Q01959)
# Sequence (Q01959 whole entry): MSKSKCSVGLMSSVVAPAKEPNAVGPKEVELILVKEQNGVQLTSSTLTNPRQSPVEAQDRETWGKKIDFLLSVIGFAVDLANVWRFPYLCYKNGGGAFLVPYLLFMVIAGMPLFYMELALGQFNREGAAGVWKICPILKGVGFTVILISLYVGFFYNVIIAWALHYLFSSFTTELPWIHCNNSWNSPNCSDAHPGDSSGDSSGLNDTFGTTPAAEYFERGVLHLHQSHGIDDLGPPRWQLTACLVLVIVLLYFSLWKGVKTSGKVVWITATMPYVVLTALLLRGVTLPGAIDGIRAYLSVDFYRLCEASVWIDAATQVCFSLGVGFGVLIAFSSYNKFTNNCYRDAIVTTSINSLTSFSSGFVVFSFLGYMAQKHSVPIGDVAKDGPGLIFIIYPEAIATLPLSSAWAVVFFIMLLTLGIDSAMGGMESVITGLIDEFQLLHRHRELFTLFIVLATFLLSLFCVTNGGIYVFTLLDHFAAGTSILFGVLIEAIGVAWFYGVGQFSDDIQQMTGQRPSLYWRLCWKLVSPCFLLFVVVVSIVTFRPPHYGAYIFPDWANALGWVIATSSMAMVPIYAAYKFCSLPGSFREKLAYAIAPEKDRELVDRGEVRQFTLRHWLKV
# protocol-notes: Human DAT (dopamine transporter) uptake assay
# Assay type: cell-based
# reported-conditions: read-out: hDAT Ki
measurement-label: Ki (nM)
Numeric answer only, unit nM assumed.

IN: Reported Ki, compound CNCC(c1ccc2ccccc2c1)C(OC)c1ccccc1 (centres unmarked) [Compound 38] : ____
OUT: 49.9

IN: Reported Ki, compound CNC[C@H](c1ccc2ccccc2c1)[C@H](OCC(=O)N1CCC1)c1ccccc1 [Compound 30] : ____
OUT: 14.3

IN: Reported Ki, compound CN1CCO[C@H](c2ccccc2)[C@@H](c2ccc3ccccc3c2)C1 [Compound 77] : ____
OUT: 44.7

IN: Reported Ki, compound CCc1ccccc1[C@@H](O)[C@H](CNC)c1ccc(Cl)c(Cl)c1 [Compound 158] : ____
OUT: 55.4

IN: Reported Ki, compound CNC[C@H](c1ccc2ccccc2c1)[C@H](OCC(=O)N1CCOCC1)c1ccccc1 [Compound 23] : ____
OUT: 65.6
